experiment: HCT116 colon cancer cell growth inhibition, primary screen, CellTiter-Glo luminescence, NPC library (AID 1117342); details: at 20 µM (top of the series)
Measured inhibition of viability of individual entries
The figure you give is taken to be in %; do not add the unit.

[
  {
    "COMPOUND": "NC[C@H]1O[C@H](O[C@H]2[C@@H](O)[C@@H](O[C@H]3O[C@H](CO)[C@@H](O)[C@H](N)[C@@H]3O)[C@H](N)C[C@@H]2N)[C@H](N)C[C@H]1O",
    "UNIT_SYMBOL": "%",
    "OBSERVED_RESULT": -0.2
  },
  {
    "COMPOUND": "C=CCOc1cc(Cl)ccc1C(=O)NCCN(CC)CC",
    "UNIT_SYMBOL": "%",
    "OBSERVED_RESULT": 30
  }
]

Turning to the following compound.
Which inhibition of viability is reported for this compound? `CO/N=C(\C(=O)O)c1csc(NC(=O)CCl)n1`
-2
